The reported measurements were obtained from PubChem BioAssay AID1963451.

tested on: 521955-158-R6-J3-PDC complex spheroid growth, % test/control; assay: Anticancer human tumor 521955-158-R6-J3-PDC patient-derived pancreatic carcinoma cell line growth inhibition [Asc]; details: second compound 0.00949 µM; first compound 0.316 µM; stronger effect = lower value;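 also: spheroids exposed to compounds for 7 days; 100% = DMSO vehicle control wells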
Catalogue of viability, T/C readings, one per entry.

[[record]]
compound = "O=C(c1cc(Cc2n[nH]c(=O)c3ccccc23)ccc1F)N1CCN(C(=O)C2CC2)CC1 + CCN1C(C(=O)NC23CCC(C(=O)O)(CC2)CC3)C(c2cccc(Cl)c2F)C2(C(=O)Nc3cc(Cl)ccc32)C12CCCCC2"
quantity = "viability, T/C"
result = "92.4%"

[[record]]
compound = "COc1c(OCCCN2CCOCC2)ccc2c3n(c(=NC(=O)c4cnc(N)nc4)nc12)CCN3 + CCN1C(C(=O)NC23CCC(C(=O)O)(CC2)CC3)C(c2cccc(Cl)c2F)C2(C(=O)Nc3cc(Cl)ccc32)C12CCCCC2"
quantity = "viability, T/C"
result = "51.9%"

[[record]]
compound = "O=C(c1ccc(F)c(F)c1Nc1ccc(I)cc1F)N1CC(O)([C@@H]2CCCCN2)C1 + CCN1C(C(=O)NC23CCC(C(=O)O)(CC2)CC3)C(c2cccc(Cl)c2F)C2(C(=O)Nc3cc(Cl)ccc32)C12CCCCC2"
quantity = "viability, T/C"
result = "65.1%"

[[record]]
compound = "C=C(F)C(=O)N1CCN(c2nc(OCC3CCCN3C)nc3c2CCN(c2cccc4cccc(Cl)c24)C3)CC1CC#N (stereo not drawn) + CCN1C(C(=O)NC23CCC(C(=O)O)(CC2)CC3)C(c2cccc(Cl)c2F)C2(C(=O)Nc3cc(Cl)ccc32)C12CCCCC2"
quantity = "viability, T/C"
result = "102%"

[[record]]
compound = "C#Cc1c(F)ccc2cc(O)cc(-c3ncc4c(N5CC6CCC(C5)N6)nc(OCC56CCCN5CC(F)C6)nc4c3F)c12 (stereo not drawn) + CCN1C(C(=O)NC23CCC(C(=O)O)(CC2)CC3)C(c2cccc(Cl)c2F)C2(C(=O)Nc3cc(Cl)ccc32)C12CCCCC2"
quantity = "viability, T/C"
result = "50.2%"


Memo: C=CC(=O)N1CCN(c2nc(=O)n(-c3c(C)ccnc3C(C)C)c3nc(-c4c(O)cccc4F)c(F)cc23)C(C)C1 (stereo not drawn) + CCN1C(C(=O)NC23CCC(C(=O)O)(CC2)CC3)C(c2cccc(Cl)c2F)C2(C(=O)Nc3cc(Cl)ccc32)C12CCCCC2 , reported viability, T/C: 107%

Memo: CNC(C)C(=O)NC1CN(S(=O)(=O)c2cccc(S(=O)(=O)N3CCC4CCC(C(=O)NC(c5ccccc5)c5ccccc5)N4C(=O)C(NC(=O)C(C)NC)C3)c2)CCC2CCC(C(=O)NC(c3ccccc3)c3ccccc3)N2C1=O (stereo not drawn) + CCN1C(C(=O)NC23CCC(C(=O)O)(CC2)CC3)C(c2cccc(Cl)c2F)C2(C(=O)Nc3cc(Cl)ccc32)C12CCCCC2 , reported viability, T/C: 89.7%

Memo: CCN1CCN(Cc2ccc(Nc3ncc(F)c(-c4cc(F)c5nc(C)n(C(C)C)c5c4)n3)nc2)CC1 + CCN1C(C(=O)NC23CCC(C(=O)O)(CC2)CC3)C(c2cccc(Cl)c2F)C2(C(=O)Nc3cc(Cl)ccc32)C12CCCCC2 , reported viability, T/C: 89.1%
